assay_target: human full-length MKNK1 (Homo sapiens, UniProt Q9BUB5, T385D)
Construct: GST (N); purchased Carna Biosciences 02-145; host or cells: insect cells (baculovirus expression system)
Sequence (Q9BUB5 1-424 isoform Q9BUB5-2 T344D): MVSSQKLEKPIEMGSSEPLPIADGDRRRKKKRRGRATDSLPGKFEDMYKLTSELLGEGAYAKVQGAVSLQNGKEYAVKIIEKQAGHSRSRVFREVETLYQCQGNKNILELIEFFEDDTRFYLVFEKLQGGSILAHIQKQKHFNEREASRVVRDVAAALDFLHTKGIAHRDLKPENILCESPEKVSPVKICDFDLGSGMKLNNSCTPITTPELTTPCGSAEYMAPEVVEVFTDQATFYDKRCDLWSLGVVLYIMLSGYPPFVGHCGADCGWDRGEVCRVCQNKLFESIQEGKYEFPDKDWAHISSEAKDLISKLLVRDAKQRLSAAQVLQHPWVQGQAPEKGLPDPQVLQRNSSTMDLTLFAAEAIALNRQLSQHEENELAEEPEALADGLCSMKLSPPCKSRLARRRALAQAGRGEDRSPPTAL
assay: MKNK1 kinase high ATP assay (TR-FRET)
Format: biochemical
cond: TR-FRET, high ATP (2 mM final), 15 min preincubation with enzyme, GST-MKNK1 (T344D); read-out: MKNK1 IC50
experimental_endpoint: IC50 (nM)

CN(C)C1CCN(C(=O)[C@H]2CCc3c(sc4ncnc(Nc5ccc6nnsc6c5)c34)C2)CC1 [Example 15]	10
COc1cc2nnsc2cc1Nc1ncnc2sc3c(c12)CC[C@H](C(=O)N1CCC1)C3 [Example 46]	182
CN(C)C(=O)[C@H]1CCc2c(sc3ncnc(Nc4ccc5nnsc5c4)c23)C1 [Example 1]	16
CN(C)C1CN(C(=O)[C@H]2CCc3c(sc4ncnc(Nc5ccc6nnsc6c5)c34)C2)C1 [Example 14]	26
CN1CCN(C(=O)[C@H]2CCc3c(sc4ncnc(Nc5ccc6nnsc6c5)c34)C2)CC1 [Example 34]	13
CN(C)CCCN(C)C(=O)[C@H]1CCc2c(sc3ncnc(Nc4ccc5nnsc5c4)c23)C1 [Example 30]	8.1
CN(C)C(=O)CN(C)C(=O)[C@H]1CCc2c(sc3ncnc(Nc4ccc5nnsc5c4)c23)C1 [Example 29]	7
C[C@@H]1COC[C@H](C)N1C(=O)[C@H]1CCc2c(sc3ncnc(Nc4ccc5nnsc5c4)c23)C1 [Example 7]	5.8
